target: Cyclin-dependent kinase 2/cyclin E (Homo sapiens); assay: Inhibition of Cyclin-dependent kinase 2-cyclin E; format: protein-complex assay
Measurement Type: pIC50
Convention used: pIC50 is expressed as -log10 of the molar concentration.

// recorded pIC50 for "COc1ccc(-c2[nH]nc3c2C(=O)c2c(NC(=O)NN(C)C)cccc2-3)cc1" : 8.30

###

target: Cyclin-dependent kinase 2/cyclin E (Homo sapiens); assay: Compound was evaluated for inhibition of Cyclin-dependent kinase 2-cyclin E; format: protein-complex assay
Measurement Type: pIC50
Convention used: pIC50 is expressed as -log10 of the molar concentration.

Past entries and their recorded results:
# Structure, pIC50
rows = [
    ("COc1ccc(-c2[nH]nc3c2C(=O)c2c(NC(=O)NN4CCCCC4)cccc2-3)cc1", 7.66),
    ("COc1ccc(CNC(=O)Nc2cccc3c2C(=O)c2c(-c4ccc(OC)cc4)n[nH]c2-3)cc1", 6.74),
    ("COc1ccc(-c2[nH]nc3c2C(=O)c2cc(N)ccc2-3)cc1", 3.68),
]

Consider the record given below.
// recorded pIC50 for "COc1ccc(-c2[nH]nc3c2C(=O)c2c(NC(=O)CN(C)C)cccc2-3)cc1" : 7.36

###

Each entry below carries its recorded IC50.
molecular target: Cyclin-dependent kinase 4/cyclin D1 (Homo sapiens, UniProt P11802); assay: Compound was evaluated for 50% inhibition of Cyclin-dependent kinase 4-cyclin D1; assay type: protein-complex assay
Sequence (P11802 whole entry): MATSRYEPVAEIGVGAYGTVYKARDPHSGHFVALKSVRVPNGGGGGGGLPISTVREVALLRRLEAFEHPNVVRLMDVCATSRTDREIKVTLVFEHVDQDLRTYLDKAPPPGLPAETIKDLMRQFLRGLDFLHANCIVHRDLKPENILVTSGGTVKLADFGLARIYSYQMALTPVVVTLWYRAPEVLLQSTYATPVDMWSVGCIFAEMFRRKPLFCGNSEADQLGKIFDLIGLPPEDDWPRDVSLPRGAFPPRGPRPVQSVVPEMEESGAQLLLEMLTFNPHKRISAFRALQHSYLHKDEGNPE
Sequence (P24385 whole entry, further chain): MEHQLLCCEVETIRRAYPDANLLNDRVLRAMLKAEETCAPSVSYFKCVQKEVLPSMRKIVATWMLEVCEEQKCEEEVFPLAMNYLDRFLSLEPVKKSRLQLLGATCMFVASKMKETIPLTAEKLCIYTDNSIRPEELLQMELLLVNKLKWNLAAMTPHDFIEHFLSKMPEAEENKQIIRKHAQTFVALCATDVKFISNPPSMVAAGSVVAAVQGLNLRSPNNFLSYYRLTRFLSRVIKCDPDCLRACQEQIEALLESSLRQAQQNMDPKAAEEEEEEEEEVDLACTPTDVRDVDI

# Structure, Target Of Assay, Measurement
measured = [
    ("COc1ccc(-c2[nH]nc3c2C(=O)c2cc(N)ccc2-3)cc1", "Cyclin-dependent kinase 4/cyclin D1 (Homo sapiens, UniProt P11802)", "108000 nM"),
    ("COc1ccc(-c2[nH]nc3c2C(=O)c2c(NC(=O)CN4CCCCC4)cccc2-3)cc1", "Cyclin-dependent kinase 4/cyclin D1 (Homo sapiens, UniProt P11802)", "> 1000 nM"),
    ("COc1ccc(-c2[nH]nc3c2C(=O)c2c(NC(=O)NN4CCCC4)cccc2-3)cc1", "Cyclin-dependent kinase 4/cyclin D1 (Homo sapiens, UniProt P11802)", "12 nM"),
    ("COc1ccc(-c2[nH]nc3c2C(=O)c2c(NC(=O)CN4CCNCC4)cccc2-3)cc1", "Cyclin-dependent kinase 4/cyclin D1 (Homo sapiens, UniProt P11802)", "113 nM"),
    ("COc1ccc(-c2[nH]nc3c2C(=O)c2c(NC(=O)CN4CCSCC4)cccc2-3)cc1", "Cyclin-dependent kinase 4/cyclin D1 (Homo sapiens, UniProt P11802)", "> 500 nM"),
    ("COc1ccc(-c2[nH]nc3c2C(=O)c2c(NC(=O)CN4CCOCC4)cccc2-3)cc1", "Cyclin-dependent kinase 4/cyclin D1 (Homo sapiens, UniProt P11802)", "195 nM"),
    ("COc1ccc(CNC(=O)Nc2cccc3c2C(=O)c2c(-c4ccc(OC)cc4)n[nH]c2-3)cc1", "Cyclin-dependent kinase 4/cyclin D1 (Homo sapiens, UniProt P11802)", "> 1100 nM"),
    ("CCN(CC)C(=O)Nc1cccc2c1C(=O)c1c(-c3ccc(OC)cc3)n[nH]c1-2", "Cyclin-dependent kinase 4/cyclin D1 (Homo sapiens, UniProt P11802)", "> 1300 nM"),
    ("COc1ccc(-c2c3c(nn2C)-c2ccccc2C3=O)cc1", "Cyclin-dependent kinase 4/cyclin D1 (Homo sapiens, UniProt P11802)", "> 340000 nM"),
    ("COc1ccc(-c2[nH]nc3c2C(=O)c2c(NC(=O)CN)cccc2-3)cc1", "Cyclin-dependent kinase 4/cyclin D1 (Homo sapiens, UniProt P11802)", "> 1400 nM"),
]

// recorded IC50 for "COc1ccc(-c2[nH]nc3c2C(=O)c2c(NC(=O)N(C)Cc4ccccc4)cccc2-3)cc1" : > 2300 nM

// recorded IC50 for "COc1ccc(-c2[nH]nc3c2C(=O)c2cccnc2-3)cc1" : > 361000 nM

// recorded IC50 for "COc1ccc(-c2c3c(nn2-c2ccccc2)-c2ccccc2C3=O)cc1" : > 200000 nM
